Value source: patent US20260232767A1

procedureSummary: Plasma concentrations (PK), Example 1
Format: in vivo, human
statedConditions: human, plasma, oral, 25 mg, weight >90 kg, 25 mg BID, Week 16, Intermediate; read-out: Plasma concentration, Mean
attributeMeasured: level at 2688 h (ng/mL)
Only the number, expressed in ng/mL, is required.

level at 2688 h recorded for this compound, CC(=O)NCCCC[C@@H]1NC(=O)[C@H](Cc2c[nH]c3c(C)cccc23)NC(=O)[C@H]([C@@H](C)O)NC(=O)[C@H](CC(N)=O)NC(=O)[C@@H](NC(C)=O)C(C)(C)SSC(C)(C)[C@@H](C(=O)N[C@@H](Cc2ccc(OCCN)cc2)C(=O)N[C@@H](Cc2ccc3ccccc3c2)C(=O)NC2(C(=O)N[C@@H](CCC(=O)O)C(=O)N[C@@H](CC(N)=O)C(=O)N[C@@H](Cc3cccnc3)C(=O)N(C)CC(N)=O)CCOCC2)NC1=O [IL-23 receptor antagonist peptide] , is 0.181

* * *

procedureSummary: Plasma concentrations (PK), Example 1
Type: in vivo, human
statedConditions: human, plasma, oral, 100 mg, 100 mg QD; Week 8; Peak; read-out: Plasma concentration, Mean
attributeMeasured: level at 1344 h (ng/mL)
Only the number, expressed in ng/mL, is required.

level at 1344 h recorded for this compound, CC(=O)NCCCC[C@@H]1NC(=O)[C@H](Cc2c[nH]c3c(C)cccc23)NC(=O)[C@H]([C@@H](C)O)NC(=O)[C@H](CC(N)=O)NC(=O)[C@@H](NC(C)=O)C(C)(C)SSC(C)(C)[C@@H](C(=O)N[C@@H](Cc2ccc(OCCN)cc2)C(=O)N[C@@H](Cc2ccc3ccccc3c2)C(=O)NC2(C(=O)N[C@@H](CCC(=O)O)C(=O)N[C@@H](CC(N)=O)C(=O)N[C@@H](Cc3cccnc3)C(=O)N(C)CC(N)=O)CCOCC2)NC1=O [IL-23 receptor antagonist peptide] , is 1.15

* * *

procedureSummary: Plasma concentrations (PK), Example 1
Type: in vivo, human
statedConditions: human, plasma, oral, 25 mg, weight >90 kg, 25 mg QD, Week 16, Trough; read-out: Plasma concentration, Geometric Mean
attributeMeasured: level at 2688 h (ng/mL)
Only the number, expressed in ng/mL, is required.

level at 2688 h recorded for this compound, CC(=O)NCCCC[C@@H]1NC(=O)[C@H](Cc2c[nH]c3c(C)cccc23)NC(=O)[C@H]([C@@H](C)O)NC(=O)[C@H](CC(N)=O)NC(=O)[C@@H](NC(C)=O)C(C)(C)SSC(C)(C)[C@@H](C(=O)N[C@@H](Cc2ccc(OCCN)cc2)C(=O)N[C@@H](Cc2ccc3ccccc3c2)C(=O)NC2(C(=O)N[C@@H](CCC(=O)O)C(=O)N[C@@H](CC(N)=O)C(=O)N[C@@H](Cc3cccnc3)C(=O)N(C)CC(N)=O)CCOCC2)NC1=O [IL-23 receptor antagonist peptide] , is 0.063

* * *

procedureSummary: Plasma concentrations (PK), Example 1
Assay type: in vivo, human
statedConditions: human, plasma, oral, 25 mg, 25 mg QD; Week 4; Peak; read-out: Plasma concentration, Geometric Mean
attributeMeasured: level at 672 h (ng/mL)
Only the number, expressed in ng/mL, is required.

level at 672 h recorded for this compound, CC(=O)NCCCC[C@@H]1NC(=O)[C@H](Cc2c[nH]c3c(C)cccc23)NC(=O)[C@H]([C@@H](C)O)NC(=O)[C@H](CC(N)=O)NC(=O)[C@@H](NC(C)=O)C(C)(C)SSC(C)(C)[C@@H](C(=O)N[C@@H](Cc2ccc(OCCN)cc2)C(=O)N[C@@H](Cc2ccc3ccccc3c2)C(=O)NC2(C(=O)N[C@@H](CCC(=O)O)C(=O)N[C@@H](CC(N)=O)C(=O)N[C@@H](Cc3cccnc3)C(=O)N(C)CC(N)=O)CCOCC2)NC1=O [IL-23 receptor antagonist peptide] , is 0.469
